Target: human, KCNT1 (Homo sapiens (Human))
Assay: FLIPR Tl/K Flux Assay
Format: cell-based
Settings: HEK293 cells stably expressing human KCNT1; Tl+ flux stimulated with EC80 of agonist Loxapine
pIC50: −log10 of the molar value.
Reported pIC50 by item:

Compound	Tested System	pIC50
O=C(NC1CCCc2nn(-c3ccnc(C(F)(F)F)c3)cc21)c1cccnc1 (racemic)	human, KCNT1 (Homo sapiens (Human))	< 6.00
O=C(N[C@H]1CCCn2nc(-c3cc(C(F)(F)F)ncc3F)cc21)c1cnc2ccccc2n1 [Compound I-195a]	human, KCNT1 (Homo sapiens (Human))	> 6.60
CN(C(=O)N[C@H]1CCc2nn(-c3ccnc(C(F)(F)F)c3)cc21)c1ccccc1 [Compound I-102a]	human, KCNT1 (Homo sapiens (Human))	> 6.60
COc1cc(-c2nc3c(o2)[C@@H](NC(=O)c2cncc(C(F)(F)F)n2)CCC3)ccn1 [Compound I-143a]	human, KCNT1 (Homo sapiens (Human))	< 6.00
N#Cc1cccc(C(=O)N[C@H]2CCCCc3nn(-c4ccnc(C5CC5)c4)cc32)c1 [Compound I-335a]	human, KCNT1 (Homo sapiens (Human))	> 6.60

# pIC50 of COc1nc(C(=O)N[C@H]2CCn3nc(-c4ccnc(C(F)(F)F)c4)cc32)n(C)n1 [Compound I-210a] = > 6.60

Sample CC(F)(F)C12CC(C(=O)N[C@H]3CCn4nc(-c5cc(C(F)(F)F)ncc5F)cc43)(C1)C2 [Compound I-526a] ; pIC50 observed: > 6.60

// field: pIC50; key: CC(F)(F)c1cc(-c2nc3c(o2)CCC[C@@H]3NC(=O)c2cncc(C(F)(F)F)c2)ccn1 [Compound I-533a] ; value = > 6.60

Entry O=C(N[C@H]1CCCn2nc(-c3cc(C(F)(F)F)ncc3F)cc21)c1cncc(C(F)(F)F)n1 [Compound I-204a] — recorded pIC50 = > 6.60

// pIC50 lookup, compound = N#Cc1cccc(C(=O)N[C@H]2CCCc3oc(-c4ccnc(C5CC5)c4)nc32)c1 [Compound I-232a] , result: > 6.60

Reported pIC50 for CC(C)c1cc(-n2cc3c(n2)CC[C@H]3NC(=O)c2cc(C(F)(F)F)nn2C)ccn1 [Compound I-70b] was < 6.00

Sure, the documented pIC50 for `Cn1nc(C(F)(F)F)cc1C(=O)N[C@H]1CCc2nn(-c3ccnc(C(F)(F)F)c3)cc21` is > 6.60

---

Molecular target: human, KCNT1 (Homo sapiens (Human), UniProt Q5JUK3)
Sequence (Q5JUK3 whole entry): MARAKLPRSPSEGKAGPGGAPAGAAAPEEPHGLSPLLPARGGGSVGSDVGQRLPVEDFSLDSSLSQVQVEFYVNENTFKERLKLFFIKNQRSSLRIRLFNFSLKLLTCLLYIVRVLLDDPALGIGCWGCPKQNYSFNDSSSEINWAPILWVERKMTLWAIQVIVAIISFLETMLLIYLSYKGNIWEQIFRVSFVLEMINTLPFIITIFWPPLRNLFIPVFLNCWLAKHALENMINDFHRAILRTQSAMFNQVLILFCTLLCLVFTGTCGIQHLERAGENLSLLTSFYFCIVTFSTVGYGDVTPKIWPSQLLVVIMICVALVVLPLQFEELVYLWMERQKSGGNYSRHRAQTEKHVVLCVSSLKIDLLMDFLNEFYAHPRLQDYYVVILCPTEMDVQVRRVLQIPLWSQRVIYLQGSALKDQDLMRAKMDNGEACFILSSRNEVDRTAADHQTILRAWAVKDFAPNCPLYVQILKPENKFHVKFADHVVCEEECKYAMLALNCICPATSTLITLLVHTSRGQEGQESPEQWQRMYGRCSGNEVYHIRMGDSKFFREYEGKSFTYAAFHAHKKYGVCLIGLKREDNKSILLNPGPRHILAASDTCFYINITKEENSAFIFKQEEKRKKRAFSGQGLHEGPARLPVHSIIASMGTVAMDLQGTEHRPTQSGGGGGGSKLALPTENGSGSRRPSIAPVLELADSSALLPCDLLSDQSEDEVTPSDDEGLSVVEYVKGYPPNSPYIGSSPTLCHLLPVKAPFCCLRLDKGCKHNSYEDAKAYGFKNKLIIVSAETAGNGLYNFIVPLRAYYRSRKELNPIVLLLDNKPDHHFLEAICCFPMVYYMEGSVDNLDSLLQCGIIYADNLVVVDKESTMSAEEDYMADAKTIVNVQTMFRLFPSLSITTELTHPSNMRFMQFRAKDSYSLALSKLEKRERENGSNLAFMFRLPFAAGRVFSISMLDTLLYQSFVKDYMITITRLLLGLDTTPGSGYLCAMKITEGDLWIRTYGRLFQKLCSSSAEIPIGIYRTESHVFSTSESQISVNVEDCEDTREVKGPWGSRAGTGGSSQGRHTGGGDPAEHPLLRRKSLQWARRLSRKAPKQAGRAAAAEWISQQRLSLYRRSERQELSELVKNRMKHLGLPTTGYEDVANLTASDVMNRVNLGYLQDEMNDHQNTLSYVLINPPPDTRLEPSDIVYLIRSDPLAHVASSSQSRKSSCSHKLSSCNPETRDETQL
Assay: FLIPR Tl/K Flux Assay
Details: HEK293 cells stably expressing human KCNT1; Tl+ flux stimulated with EC80 of agonist Loxapine
The entries below are paired with their reported IC50.

Compound	Result
COc1cc(-c2cc3n(n2)CC[C@@H]3NC(=O)c2cnc(C(F)(F)F)cn2)c(F)cn1 [Compound I-575a]	< 250 nM

For reference, reported IC50 for O=C(NC1CCCc2nn(-c3ccnc(C(F)(F)F)c3)cc21)c1ccc(C(F)(F)F)nc1 (racemic) [Compound I-19] stands at 250 to 500 nM

Per the records, this compound ( CC(F)(F)c1cc(C(=O)N[C@H]2CCn3nc(-c4ccnc(C(F)(F)F)c4)cc32)ccn1 [Compound I-528a] ) has IC50 equal to < 250 nM

Please fill in: IC50 reported for O=C(N[C@H]1CCCc2nc(-c3ccnc(C4CC4)c3)oc21)c1cncc(C(F)(F)F)n1 [Compound I-152a] = < 250 nM
